# testSystem: T1, cyno-CD200R1 ECD (cynomolgus monkey)
# T1 construct: also called cynomolgus monkey CD200R1; MfCD200R1 (recombinant)
# T1 chain: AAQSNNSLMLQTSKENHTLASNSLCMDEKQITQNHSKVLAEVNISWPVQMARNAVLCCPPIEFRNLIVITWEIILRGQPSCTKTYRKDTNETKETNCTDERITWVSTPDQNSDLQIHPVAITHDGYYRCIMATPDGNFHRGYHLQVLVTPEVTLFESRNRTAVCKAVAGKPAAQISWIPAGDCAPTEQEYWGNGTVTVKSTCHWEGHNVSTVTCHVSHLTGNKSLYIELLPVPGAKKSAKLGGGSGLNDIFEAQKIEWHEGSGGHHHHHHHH
# assayName: blocking ELISA; biotin-cyno-CD200R1 + antibody dilutions on coated cyno-CD200-Fc
assayMetric: IC50 (nM)
All answers are understood in nM, so give the number only.

Example cases with answers are listed next.
h10F6.V4 (antibody, IgG1, V domains shown, IgG1 variant of h10F6) VH: EVQLQESGPGLVKPSETLSLTCTVSGFSLTNYWVSWVRQPPGKGLEWLGTMWAGGGTNYNSVFKSRLTISKDNSKNQVSLKLSSVTAADTAVYYCARERPLTGPMDYWGQGTLVTVSS VL: DIVLTQSPDSLAVSLGERATINCRASESVDYSGNSFMHWFQQKPGQPPKLLIYRASNLESGIPDRFSGSGSRTDFTLTISSLQAEDVAVYYCHQSNWDPPTFGGGTKVEIKR has a reported IC50 of 2.15

Given item h10F6.V1 (antibody, IgG1, V domains shown, differs by 3 residues in the heavy chain CDRs and 1 in the light chain CDRs; also called surrogate antibody) VH: EVQLQESGPGLVKPSETLSLTCTVSGFSLTNYRVSWVRQPPGKGLEWLGVMYAGGGTNYNSVFKSRLTISKDNSKNQVSLKLSSVTAADTAVYYCARERPLTGVMDNWGQGTLVTVSS VL: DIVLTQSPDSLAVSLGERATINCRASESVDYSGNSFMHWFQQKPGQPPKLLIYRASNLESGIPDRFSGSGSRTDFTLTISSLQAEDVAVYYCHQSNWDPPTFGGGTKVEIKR , the value recorded as its IC50 is 2.44

Data point: h10F6.V2 (antibody, IgG1, V domains shown, IgG1 variant of h10F6) VH: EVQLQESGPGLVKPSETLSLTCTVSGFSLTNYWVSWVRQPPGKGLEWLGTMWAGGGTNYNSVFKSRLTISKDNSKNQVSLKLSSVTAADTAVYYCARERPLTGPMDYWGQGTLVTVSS VL: DIVLTQSPDSLAVSLGERATINCRASESVDYSGNSFMHWFQQKPGQPPKLLIYRASNLESGIPDRFSGSGSRTDFTLTISSLQAEDVAVYYCHQSNEDPPTFGGGTKVEIKR ; IC50 = 4.25

We now examine a further binder.
// h10F6.V3 (antibody, IgG1, V domains shown, IgG1 variant of h10F6) VH: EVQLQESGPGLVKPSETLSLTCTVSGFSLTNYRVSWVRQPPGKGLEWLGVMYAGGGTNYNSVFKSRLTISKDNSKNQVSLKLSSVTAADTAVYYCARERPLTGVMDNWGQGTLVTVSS VL: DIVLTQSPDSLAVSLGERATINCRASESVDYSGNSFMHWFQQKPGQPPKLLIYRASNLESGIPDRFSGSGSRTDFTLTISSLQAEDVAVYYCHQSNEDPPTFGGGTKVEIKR : IC50 value = 11.4
